- System: SF-295 CNS
- ASSAY DETAILS: NCI-60 one-dose screen, 48 h
- RUN PARAMETERS: 10 µM unless noted
Compounds without any hit were thinned out: in the full panel of roughly 83,000, 20% have a hit. The source made the active and inactive calls. How the source made its calls: active means growth percent below 10; inactive means the rest.
Outcomes: yes (active), no (inactive)

> print(dat)
                                    compound  assigned.category
 1  O=S(=O)(NCCNc1cc(-c2cn(-c3ccccc3)nc2-c2cccc(O)c2)ccn1)c1ccc(Br)cc1                yes
 2  CC1c2ccccc2N(S(=O)(=O)c2ccccc2)C1C (stereo unspecified)                 no
 3          CC(C)(C)c1nc(-c2ccc(O)c(O)c2)cs1                 no
 4  CN(CSc1ccc(Cl)cc1)c1ccc(CSc2ccc(Cl)cc2)cc1                 no
 5  O=[N+]([O-])c1ccc(N/N=C(\C(=N/Nc2ccc([N+](=O)[O-])cc2[N+](=O)[O-])c2ccccc2)c2ccccc2)c([N+](=O)[O-])c1                 no
 6  Cc1oc(-c2ccccc2Cl)cc1C(=O)Nc1ccc(S(N)(=O)=O)cc1                 no
 7  COc1cnc2c(c1)C(=O)c1c-2n(CCCN2CCN(CCO)CC2)c(=O)c2cc([N+](=O)[O-])ccc12                 no
 8  CC(=O)n1c(/C(C#N)=C/c2ccc(N(C)C)cc2)cc2ccccc21                yes
 9        CCc1nnc(NC(=O)c2ccoc2COc2ccccc2)s1                 no
10  CC1=CC(=O)N(c2cccc3c(N4C(=O)C=C(C)C4=O)cccc23)C1=O                 no
11  CC1(c2ccccc2)OC1C(=O)O (stereo unspecified)                 no
12  COc1cc(/C=N/NC(=S)NNC(=S)NC2CCCCC2)cc(OC)c1OC                 no
13  Cn1cc(-c2csc(-c3cn(C(=O)OC(C)(C)C)c4ccccc34)n2)c2cccnc21                 no
14  C[C@@H](Oc1ccc(C(=O)NS(=O)(=O)C(C)(C)C)cc1C(F)(F)F)c1ccc(Oc2ccccc2)cn1                 no
15  O=S(=O)(NCCNc1cc(-c2cn(-c3ccccc3)nc2-c2cccc(O)c2)ccn1)c1cccc(F)c1                 no
16  CC(=O)c1c(C)[nH]c(-c2nc3ccc(N4CCN(C)CC4)cc3[nH]2)c1-c1ccc(N(C)C)cc1                 no
17    COc1ccc(-c2n[nH]nc2-c2cc3ccccc3s2)cc1O                 no
18  COc1ccc(-n2c(/C=C/c3ccc(O)c(OC)c3)cc(/C=C/c3ccc(O)c(OC)c3)nc2=O)cc1                 no
19   Cc1cc2nc3c4cc(O)ccc4n(CCN(C)C)c3nc2cc1C                yes
20                             Nc1ccc(Br)cn1                 no
21       Cn1c(=O)c2c(nc(N3CCCC3)n2C)n(C)c1=O                 no

These measurements were taken from PubChem BioAssay (NCI).
